experiment: Activity at CYP4F in human liver microsomes assessed as metabolite formation after 15 mins by Eadie-Hofstee plot analysis; type: ADME; conditions: 0.25 h
PARAMETER MEASURED: Km (µM)

> print(dat)
                             test.smiles  parameter.measured  assay.value
1  CCCCCCCCc1ccc(CC[14C](N)(CO)CO)cc1.Cl                  Km          183

====

test: Terminal half life in human; type: ADME, organism-based; design: dosed compound name Fingolimod; settings: in vivo, read-out: beta t1/2 (converted)
PARAMETER MEASURED: half-life (h)

> print(dat)
                                   molecule  assay.value
1  CCCCCCCCc1ccc(CCC(N)(CO)CO)cc1 [FINGOLIMOD]          120

Data provenance is ChEMBL document CHEMBL3525920.
